Values were extracted from patent US8410117B2.

# test-target: human PDE10A (Homo sapiens, UniProt Q9Y233)
# Sequence (Q9Y233 1-779 isoform Q9Y233-1): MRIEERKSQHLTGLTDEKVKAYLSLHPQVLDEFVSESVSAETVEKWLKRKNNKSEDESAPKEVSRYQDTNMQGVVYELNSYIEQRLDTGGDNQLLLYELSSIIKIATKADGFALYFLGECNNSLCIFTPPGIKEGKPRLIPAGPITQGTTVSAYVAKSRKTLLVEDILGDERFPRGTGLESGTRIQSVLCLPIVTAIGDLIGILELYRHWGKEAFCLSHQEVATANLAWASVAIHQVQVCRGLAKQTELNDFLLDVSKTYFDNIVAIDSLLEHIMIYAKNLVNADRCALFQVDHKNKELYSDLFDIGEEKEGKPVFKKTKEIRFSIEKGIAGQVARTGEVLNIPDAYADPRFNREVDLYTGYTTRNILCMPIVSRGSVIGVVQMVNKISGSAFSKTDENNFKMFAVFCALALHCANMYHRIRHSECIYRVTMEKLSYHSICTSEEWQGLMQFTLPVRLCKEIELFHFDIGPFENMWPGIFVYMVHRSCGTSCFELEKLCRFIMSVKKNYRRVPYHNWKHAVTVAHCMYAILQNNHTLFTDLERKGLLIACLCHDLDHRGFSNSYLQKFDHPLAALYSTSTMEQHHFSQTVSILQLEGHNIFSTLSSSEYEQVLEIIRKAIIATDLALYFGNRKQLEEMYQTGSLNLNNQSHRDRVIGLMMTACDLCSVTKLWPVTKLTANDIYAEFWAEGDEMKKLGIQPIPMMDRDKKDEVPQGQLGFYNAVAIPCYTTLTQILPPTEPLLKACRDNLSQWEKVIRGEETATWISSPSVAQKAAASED
Binning of IC50 into classes: one (below 20 nM), two (20 nM to below 60 nM), three (60 nM or more)

Quick check: band for CCn1nc([N+](=O)[O-])cc1C(=O)Nc1ccn2cc(-c3ccccc3)nc2n1
three

Quick check: band for Cn1ncc(C(=O)NCc2ccon2)c1C(=O)Nc1ccn2cc(-c3ccccc3)nc2n1
three

Quick check: band for Cn1ncc(C(=O)N2CCC2)c1C(=O)Nc1ccn2cc(-c3cccc(-c4ccccc4)c3)nc2n1
two

Quick check: band for Cn1ncc(C(=O)NCc2ccno2)c1C(=O)Nc1ccn2cc(-c3ccccc3)nc2n1
two

Quick check: band for Cc1cc(CNC(=O)c2cnn(C)c2C(=O)Nc2ccn3cc(-c4ccccc4)nc3n2)n[nH]1
one

Quick check: band for Cn1ncc(C(=O)NC2(C#N)CC2)c1C(=O)Nc1ccn2cc(-c3ccccc3)nc2n1
three

Quick check: band for Cn1ncc(C(=O)NCc2ncco2)c1C(=O)Nc1ccn2cc(-c3ccccc3)nc2n1
one

Quick check: band for CN(CCF)C(=O)c1cnn(C)c1C(=O)Nc1ccn2cc(-c3ccccc3)nc2n1
one

Quick check: band for Cn1ncc(C(=O)NCC2CC2)c1C(=O)Nc1ccn2cc(-c3ccccc3)nc2n1
two

Quick check: band for CCCn1ncc(Cl)c1C(=O)Nc1ccn2cc(-c3ccccc3)nc2n1
three

Quick check: band for COc1cccc(-c2cn3ccc(NC(=O)c4c(C(=O)N5CCC5)cnn4C)nc3n2)c1
one

Quick check: band for CC(C)Cn1ncc(Cl)c1C(=O)Nc1ccn2cc(-c3ccccc3)nc2n1
one

Quick check: band for CCN(C)C(=O)c1cnn(C)c1C(=O)Nc1ccn2cc(-c3ccccc3)nc2n1
one

Quick check: band for Cn1ncc(C(=O)NCc2nc(C#N)cs2)c1C(=O)Nc1ccn2cc(-c3ccccc3)nc2n1
three

Quick check: band for Cn1ncc(C(=O)N2CCCCC2)c1C(=O)Nc1ccn2cc(-c3ccccc3)nc2n1
one

Quick check: band for COCCNC(=O)c1cnn(C)c1C(=O)Nc1ccn2cc(-c3ccccc3)nc2n1
three

Quick check: band for Cc1nn(C)c(CNC(=O)c2cnn(C)c2C(=O)Nc2ccn3cc(-c4ccccc4)nc3n2)c1[N+](=O)[O-]
three

Quick check: band for CCN(C)C(=O)c1cnn(C)c1C(=O)Nc1ccn2cc(-c3cccc(OCC(=O)OC)c3)nc2n1
two

Quick check: band for Cn1ncc(C(=O)N2CC(O)C2)c1C(=O)Nc1ccn2cc(-c3ccccc3)nc2n1
two

Quick check: band for Cn1ncc(C(=O)NCc2cn3ccccc3n2)c1C(=O)Nc1ccn2cc(-c3ccccc3)nc2n1
three

Quick check: band for CCCN(C)C(=O)c1cnn(C)c1C(=O)Nc1ccn2cc(-c3ccccc3)nc2n1
one

Quick check: band for CC(C)CN(C)C(=O)c1cnn(C)c1C(=O)Nc1ccn2cc(-c3ccccc3)nc2n1
one

Quick check: band for Cn1ncc(C(=O)NCCC(F)(F)F)c1C(=O)Nc1ccn2cc(-c3ccccc3)nc2n1
two

Quick check: band for CCn1ncc(C(=O)NC)c1C(=O)Nc1ccn2cc(-c3ccccc3)nc2n1
one

Quick check: band for COCCN(C)C(=O)c1cnn(C)c1C(=O)Nc1ccn2cc(-c3cccc(OCCF)c3)nc2n1
one

Quick check: band for CCN(C)C(=O)c1cnn(C)c1C(=O)Nc1ccn2cc(-c3cccc(OC)c3)nc2n1
one

Quick check: band for O=C(Nc1ccn2cc(-c3ccccc3)nc2n1)c1cc([N+](=O)[O-])nn1C1CCCC1
three

Quick check: band for C=CCn1ncc(C(=O)N2CCC2)c1C(=O)Nc1ccn2cc(-c3ccccc3)nc2n1
one

Quick check: band for CN(C)C(=O)c1cnn(C)c1C(=O)Nc1ccn2cc(-c3cccc(O)c3)nc2n1
one

Quick check: band for COC(=O)c1[nH]nnc1C(=O)Nc1ccn2cc(-c3ccccc3)nc2n1
two

Quick check: band for O=C(Nc1ccn2cc(-c3ccccc3)nc2n1)c1ccnn1-c1ccccc1
three

Quick check: band for CCN(C)C(=O)c1cn(C)nc1C(=O)Nc1ccn2cc(-c3ccccc3)nc2n1
two

Quick check: band for CN(CCF)C(=O)c1cnn(C)c1C(=O)Nc1ccn2cc(-c3cccc(OCF)c3)nc2n1
three

###

# test-target: human PDE10A (Homo sapiens, UniProt Q9Y233)
Label Y when IC50 is strictly below 30 nM; at or above that, label N.

Does this compound meet the criterion IC50 < 30 nM? Cn1ncc(C(=O)N2CCC2)c1C(=O)Nc1ccn2cc(-c3ccc(Cl)s3)nc2n1 [Example 74]
Y

Does this compound meet the criterion IC50 < 30 nM? Cn1ncc(C(=O)N2CC(F)C2)c1C(=O)Nc1ccn2cc(-c3cccc(F)c3)nc2n1 [Example 92]
Y

Does this compound meet the criterion IC50 < 30 nM? Cn1ncc(C(=O)NCc2noc(C3CC3)n2)c1C(=O)Nc1ccn2cc(-c3ccccc3)nc2n1 [Example 166]
N

Does this compound meet the criterion IC50 < 30 nM? CCCCn1ncc(Cl)c1C(=O)Nc1ccn2cc(-c3ccccc3)nc2n1 [Example 9]
N

Does this compound meet the criterion IC50 < 30 nM? Cn1ncc(C(=O)NCCF)c1C(=O)Nc1ccn2cc(-c3ccccc3)nc2n1 [Example 123]
Y

Does this compound meet the criterion IC50 < 30 nM? Cn1ncc(C(=O)NC2(C)COC2)c1C(=O)Nc1ccn2cc(-c3ccccc3)nc2n1 [Example 134]
N

Does this compound meet the criterion IC50 < 30 nM? Cc1nn(C)c(C(=O)Nc2ccn3cc(-c4ccccc4)nc3n2)c1Cl [Example 3]
N

Does this compound meet the criterion IC50 < 30 nM? O=C(Nc1ccn2cc(-c3ccccc3)nc2n1)c1nn[nH]c1C(=O)N1CCC1 [Example 27]
N

Does this compound meet the criterion IC50 < 30 nM? Cn1ncc(C(=O)N2CCC2)c1C(=O)Nc1ccn2cc(-c3cccc(F)c3)nc2n1 [Example 91]
Y

Does this compound meet the criterion IC50 < 30 nM? Cn1ncc(C(=O)N2CCC2)c1C(=O)Nc1ccn2cc(-c3cccc(O)c3)nc2n1 [Example 83]
Y

Does this compound meet the criterion IC50 < 30 nM? Cn1ncc(C(=O)NCc2ccncc2)c1C(=O)Nc1ccn2cc(-c3ccccc3)nc2n1 [Example 148]
N

Does this compound meet the criterion IC50 < 30 nM? Cn1ncc(-c2ccno2)c1C(=O)Nc1ccn2cc(-c3ccccc3)nc2n1 [Example 20]
N

Does this compound meet the criterion IC50 < 30 nM? CCn1ncc(C(=O)N2CCC2)c1C(=O)Nc1ccn2cc(-c3ccccc3)nc2n1 [Example 69]
Y

Does this compound meet the criterion IC50 < 30 nM? Cn1ncc(C(=O)NCC(F)F)c1C(=O)Nc1ccn2cc(-c3ccccc3)nc2n1 [Example 129]
N

Does this compound meet the criterion IC50 < 30 nM? Cn1ncc(C(=O)N2CCOCC2)c1C(=O)Nc1ccn2cc(-c3ccccc3)nc2n1 [Example 30]
N

Does this compound meet the criterion IC50 < 30 nM? Cc1cc(CNC(=O)c2cnn(C)c2C(=O)Nc2ccn3cc(-c4ccccc4)nc3n2)on1 [Example 127]
Y

Does this compound meet the criterion IC50 < 30 nM? Cc1ncc(Cl)c(C(=O)Nc2ccn3cc(-c4ccccc4)nc3n2)n1 [Example 79]
N

Does this compound meet the criterion IC50 < 30 nM? Cn1ncc(C(=O)NC2CC2)c1C(=O)Nc1ccn2cc(-c3ccccc3)nc2n1 [Example 51]
Y

Does this compound meet the criterion IC50 < 30 nM? Cc1ccc(CNC(=O)c2cnn(C)c2C(=O)Nc2ccn3cc(-c4ccccc4)nc3n2)nc1 [Example 155]
N

Does this compound meet the criterion IC50 < 30 nM? COc1ncccc1CNC(=O)c1cnn(C)c1C(=O)Nc1ccn2cc(-c3ccccc3)nc2n1 [Example 161]
N

Does this compound meet the criterion IC50 < 30 nM? CCN(C)C(=O)c1cnn(C)c1C(=O)Nc1ccn2cc(-c3cccc(F)c3)nc2n1 [Example 97]
Y

Does this compound meet the criterion IC50 < 30 nM? CCN(CC)C(=O)c1cnn(C)c1C(=O)Nc1ccn2cc(-c3ccccc3)nc2n1 [Example 47]
Y

Does this compound meet the criterion IC50 < 30 nM? Cn1ncc(C(=O)N2CC(F)C2)c1C(=O)Nc1ccn2cc(-c3ccccc3)nc2n1 [Example 115]
Y

Does this compound meet the criterion IC50 < 30 nM? Cn1ncc(C(=O)NCc2ccc(Cl)nc2)c1C(=O)Nc1ccn2cc(-c3ccccc3)nc2n1 [Example 154]
N

Does this compound meet the criterion IC50 < 30 nM? CC(C)Cn1nc([N+](=O)[O-])cc1C(=O)Nc1ccn2cc(-c3ccccc3)nc2n1 [Example 13]
N

Does this compound meet the criterion IC50 < 30 nM? O=C(Nc1ccn2cc(-c3ccccc3)nc2n1)c1noc2c1CCCC2 [Example 18]
N
